# credit: the METLIN SMRT retention time set (Domingo-Almenara et al. 2019)

- ASSAY REMARKS: gradient 5% acetonitrile 3 min, to 50% in 2 min, to 85% in 15 min, held 3 min, 100 µL/min
- EXPERIMENTAL SETUP: column: Zorbax Extend-C18 2.1 x 50 mm; eluents: water / acetonitrile, 0.1% formic acid
MEASURED ENDPOINT: RP-LC retention time (s)

>  <SMILES REPR>
O=C(NCc1n[nH]c(=O)c2ccccc12)c1ccc([N+](=O)[O-])o1

>  <UNIT INFO>
s

>  <RP-LC retention time>
606

$$$$
>  <SMILES REPR>
Cc1cc(=O)n(CC(=O)Nc2ccc(C(C)C)cc2)c(N2CCOCC2)n1

>  <UNIT INFO>
s

>  <RP-LC retention time>
774

$$$$
>  <SMILES REPR>
O=C(CCc1nnn2c1CN(C(=O)Nc1cccc(F)c1)CC2)NC1CC1

>  <UNIT INFO>
s

>  <RP-LC retention time>
664

$$$$
>  <SMILES REPR>
CC(C)c1ccc(-n2nc(N3CCN(C(=O)c4cc5ccccc5[nH]4)CC3)ccc2=O)cc1

>  <UNIT INFO>
s

>  <RP-LC retention time>
998

$$$$
>  <SMILES REPR>
CCOc1ccccc1-c1noc(Cn2c(=O)n(-c3ccc(Cl)cc3)c(=O)c3sccc32)n1

>  <UNIT INFO>
s

>  <RP-LC retention time>
1030

$$$$
>  <SMILES REPR>
Cc1ccc(Nc2c(-c3ccccc3)nc3ccc(C)cn23)cc1

>  <UNIT INFO>
s

>  <RP-LC retention time>
750

$$$$
>  <SMILES REPR>
Cc1ccc2c(c1)N(C(=O)Cn1cccc1-c1nc(-c3ccc4c(c3)OCO4)no1)CCO2

>  <UNIT INFO>
s

>  <RP-LC retention time>
1160

$$$$
>  <SMILES REPR>
CN1c2ccccc2C(=O)NC12CCN(C(=O)NCCc1ccccc1)CC2

>  <UNIT INFO>
s

>  <RP-LC retention time>
728

$$$$
>  <SMILES REPR>
Cc1cc(NC(=O)Cc2nn(C)c(=O)c3ccccc23)ccc1Br

>  <UNIT INFO>
s

>  <RP-LC retention time>
856

$$$$

* * *

- ASSAY REMARKS: gradient 5% acetonitrile 3 min, to 50% in 2 min, to 85% in 15 min, held 3 min, 100 µL/min
- EXPERIMENTAL SETUP: column: Zorbax Extend-C18 2.1 x 50 mm; eluents: water / acetonitrile, 0.1% formic acid
MEASURED ENDPOINT: RP-LC retention time (s)

The cases that follow already have their RP-LC retention time on record.
>  <COMPOUND>
FC1(F)C[C@@H](CN2CCOCC2)N(Cc2cn[nH]c2-c2ccccc2)C1

>  <UNIT INFO>
s

>  <RP-LC retention time>
765

$$$$
>  <COMPOUND>
Cc1cc(C)n(CC(=O)N2CCCCC2c2nc(C3CC3)no2)n1 (centres undefined)

>  <UNIT INFO>
s

>  <RP-LC retention time>
741

$$$$
>  <COMPOUND>
CN(C)c1ccc(CCNC(=O)C(=O)NCc2ccc3c(c2)OCO3)cc1

>  <UNIT INFO>
s

>  <RP-LC retention time>
577

$$$$
>  <COMPOUND>
COc1ccccc1N1CCN(c2cc(SCC(=O)Nc3ccc(C(C)C)cc3)ncn2)CC1

>  <UNIT INFO>
s

>  <RP-LC retention time>
1140

$$$$
>  <COMPOUND>
O=c1[nH]c2sc3c(c2c(=O)n1-c1ccccc1)CCCC3

>  <UNIT INFO>
s

>  <RP-LC retention time>
772

$$$$

1: Cc1ccc(NC(=O)N2CCC(N3CCN(Cc4ccccc4)C(=O)C3=O)CC2)cc1C
2: Cc1nn(Cc2cccc(C(=O)Nc3nc(-c4ccccc4)cs3)c2)c(C)c1Cl
Parameter check: reported RP-LC retention time is higher for which label, 1 or 2 ? Select an item and report its label.
2
(2: 1160 s, 1: 780 s)

I: Cc1ccc(NS(=O)(=O)c2cc(-c3[nH]ncc3C(=O)N3CCOCC3)oc2C)cc1F
II: COc1ccc(Cn2c(=O)c3sccc3n(Cc3nc(-c4ccc(F)cc4)no3)c2=O)cc1
// task: argmin of RP-LC retention time over [ I , II ] Select an item and report its label.
I
(I: 695 s, II: 1080 s)
